Give self-cleavage for every item shown.
B1: CPEB3 Ribozyme (parent)
chain: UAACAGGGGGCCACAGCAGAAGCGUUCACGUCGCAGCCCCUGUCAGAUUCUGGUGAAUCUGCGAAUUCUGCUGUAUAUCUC

Variants of: B1
Assay: self-cleavage, relative activity (ratio to wild type); higher = more cleavage; in vitro, sequencing
Number only, no unit.

// lookup self-cleavage for U1A A3U
1.2

Next record, please: U41A U80C
0.32

Field entry: A15C A45G
0.88

Lookup G33C U60G
0.12

Same again, this time with A20G G33A
0.35

Also U25A G61U ?
0.18
